src = ChEMBL document CHEMBL4033795

- assay-system: Epidermal growth factor receptor (Homo sapiens, UniProt P00533)
- Sequence (P00533 whole entry, the tested form may be a part): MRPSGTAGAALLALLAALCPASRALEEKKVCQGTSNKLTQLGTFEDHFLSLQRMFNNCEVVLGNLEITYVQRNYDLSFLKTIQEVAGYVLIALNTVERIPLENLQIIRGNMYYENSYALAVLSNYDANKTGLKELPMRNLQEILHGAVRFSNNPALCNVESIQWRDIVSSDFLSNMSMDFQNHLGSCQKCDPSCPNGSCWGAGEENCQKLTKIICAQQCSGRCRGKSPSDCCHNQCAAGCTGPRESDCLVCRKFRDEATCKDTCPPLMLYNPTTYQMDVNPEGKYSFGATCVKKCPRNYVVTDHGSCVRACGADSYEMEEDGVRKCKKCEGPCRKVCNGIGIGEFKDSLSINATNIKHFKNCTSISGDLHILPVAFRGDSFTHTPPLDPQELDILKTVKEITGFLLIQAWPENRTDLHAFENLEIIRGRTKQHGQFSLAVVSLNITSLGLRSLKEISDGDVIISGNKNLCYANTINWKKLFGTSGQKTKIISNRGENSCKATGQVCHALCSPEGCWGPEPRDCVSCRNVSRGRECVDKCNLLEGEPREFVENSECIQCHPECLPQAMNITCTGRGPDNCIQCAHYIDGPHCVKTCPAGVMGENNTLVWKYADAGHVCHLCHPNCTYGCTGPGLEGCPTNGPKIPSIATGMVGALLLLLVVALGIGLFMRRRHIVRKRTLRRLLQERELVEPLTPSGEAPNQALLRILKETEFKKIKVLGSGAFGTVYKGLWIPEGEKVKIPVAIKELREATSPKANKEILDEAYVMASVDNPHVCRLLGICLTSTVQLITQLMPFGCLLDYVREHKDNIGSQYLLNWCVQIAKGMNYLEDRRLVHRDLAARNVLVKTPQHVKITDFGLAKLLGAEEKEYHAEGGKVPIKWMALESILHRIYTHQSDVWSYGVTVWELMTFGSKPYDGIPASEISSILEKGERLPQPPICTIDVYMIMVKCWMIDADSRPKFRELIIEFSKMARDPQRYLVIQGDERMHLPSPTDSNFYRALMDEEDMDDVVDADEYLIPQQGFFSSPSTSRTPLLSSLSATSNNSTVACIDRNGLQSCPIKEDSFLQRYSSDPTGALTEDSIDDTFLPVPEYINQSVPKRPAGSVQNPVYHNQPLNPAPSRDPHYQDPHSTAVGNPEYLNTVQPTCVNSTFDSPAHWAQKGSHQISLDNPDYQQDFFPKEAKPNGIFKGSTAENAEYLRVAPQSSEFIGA
- test-summary: Inhibition of recombinant human wild type GST-tagged EGFR cytoplasmic domain (668 to 1210 residues) expressed in baculovirus using tyr4 peptide as substrate after 1 hr by FRET-based Z'-Lyte assay
API: label(entry) gives rule met if the entry's IC50 is strictly smaller than 300 nM; on equality or larger values it gives rule not met.

{"columns": ["item-smiles", "classification"],
 "data": [
  ["CCC(=O)N1CC[C@H](N2C(=O)N(c3cccc(OC)c3)Cc3cnc(Nc4ccc(N5CCN(C)CC5)c(C)c4)nc32)C1", "rule not met"],
  ["CCCN1CC[C@H](N2C(=O)N(c3ccccc3Cl)Cc3cnc(Nc4ccc(N5CCN(C)CC5)c(C)c4)nc32)C1", "rule met"],
  ["Cc1cc(Nc2ncc3c(n2)N([C@H]2CCN(C(=O)CC(C)C)C2)C(=O)N(c2ccccc2Cl)C3)ccc1N1CCN(C)CC1", "rule met"],
  ["CCC(=O)N1CC[C@H](N2C(=O)N(c3cccc(OC(F)F)c3)Cc3cnc(Nc4ccc(N5CCN(C)CC5)c(C)c4)nc32)C1", "rule met"],
  ["CCC(=O)N1CC[C@H](N2C(=O)N(c3cc(OC)ccc3F)Cc3cnc(Nc4ccc(N5CCN(C)CC5)cc4C)nc32)C1", "rule not met"],
  ["CCC(=O)N1CC[C@H](N2C(=O)N(c3cc(OC)ccc3F)Cc3cnc(Nc4ccc(N5CCN(C)[C@@H](C)C5)c(C)c4)nc32)C1", "rule not met"],
  ["CCC(=O)N1CC[C@H](N2C(=O)N(c3cc(OC)ccc3F)Cc3cnc(Nc4ccc(N5CCN(C(C)=O)CC5)c(C)c4)nc32)C1", "rule met"]
]}
